# Tested on: Escherichia coli
# test.name: The in vivo potency was determined in female charles river CD-1 mice infected with Escherichia coli after peroral administration
# Assay type: functional
# measurement.setup: Escherichia coli, po; read-out: PD50
quantity.name: ED50 (mg/kg)
Write it as a number; the unit mg/kg goes unstated.

# input molecule: Nc1c(F)c(N2CCC(N)C2)c(F)c2c1c(=O)c(C(=O)O)cn2C1CC1 (centres undefined) ; wanted: its ED50
2

What does the data say about its ED50? Entry: `O=C(O)c1cn(C2CC2)c2cc(N3CCNCC3)c(F)cc2c1=O`
1

Name the recorded ED50 for NC1CCN(c2cc3c(c(O)c2F)c(=O)c(C(=O)O)cn3C2CC2)C1 (centres undefined) .
3

Using the record for Nc1c(F)c(N2CCC(N)C2)c(Cl)c2c1c(=O)c(C(=O)O)cn2C1CC1 (centres undefined) , report its ED50.
6

###

# Tested on: Staphylococcus aureus
# test.name: Antibacterial activity was determined against gram positive organism, Staphylococcus aureus UC76
# Type: functional
# measurement.setup: Staphylococcus aureus; read-out: MIC
quantity.name: MIC (µg/mL)
State just the number; it will be interpreted in µg/mL.

Need MIC, item `O=C(O)c1cn(C2CC2)c2c(Cl)c(N3CCNCC3)c(F)cc2c1=O`
0.05

Reported MIC, molecule CC1CN(c2c(F)cc3c(=O)c(C(=O)O)cn(C4CC4)c3c2F)CCN1 (centres undefined) : ____
0.1

Any idea what MIC was measured for `O=C(O)c1cn(C2CC2)c2c(F)c(N3CCNCC3)c(F)cc2c1=O` ?
0.1

Using the record for `O=C(O)c1cn(C2CC2)c2cc(N3CCNCC3)c(F)c(O)c2c1=O` , report its MIC.
0.2

Need MIC, item CCNCC1CCN(c2c(F)cc3c(=O)c(C(=O)O)cn(C4CC4)c3c2Cl)C1 (centres undefined)
0.003

Give its MIC value. Item: CCn1cc(C(=O)O)c(=O)c2c(O)c(F)c(N3CCNC(C)C3)c(F)c21 (centres undefined)
1.6

# lookup: MIC of CCNCC1CCN(c2cc3c(c(N)c2F)c(=O)c(C(=O)O)cn3CC)C1 (centres undefined)
0.1

Requested field: MIC. Item: CCn1cc(C(=O)O)c(=O)c2c(O)c(F)c(N3CCC(N)C3)c(F)c21 (centres undefined)
0.2

MIC for CC1CN(c2c(F)cc3c(=O)c(C(=O)O)cn(C4CC4)c3c2F)CC(C)N1 (centres undefined) ?
0.05

Every entry's value here was drawn from ChEMBL document CHEMBL1125826.
